Test system: E-11 cells
test-protocol: MTT cytotoxicity test on E-11 cells
Format: cell-based
experimental-context: peptide 1.00000 mg/mL, 24 h at 25 °C, mean of n = 3, control = 100.0
Ends that are not written are not given here.
Measured Viability (%) of E-11 cells, mean values are reported for all entries that follow.
Your answer is read as %, so omit the unit and give the number.

# substance, measured-on, Viability (%) of E-11 cells, mean
records = [
    ("LLWTSSGKEQR-NH2 [Peptide P6]", "E-11 cells", 128.1),
    ("PRLGHAARIFQRYA-NH2 [Peptide P3]", "E-11 cells", 101.7),
    ("PDPTDNDHTFD-NH2 [Peptide P4]", "E-11 cells", 106.4),
    ("VSKASTVTGFGR-NH2 [Peptide P2]", "E-11 cells", 117.2),
    ("ALQATRGAVVAKWW-NH2 [Peptide P5]", "E-11 cells", 115.8),
    ("TTKAANPQPRRRANNRRRS-NH2 [Peptide P1]", "E-11 cells", 91.5),
]

Let us examine a further case.
Log: E-11 cells, substance SVRLSVPSLETPEETTA-NH2 [Peptide P7] , Viability (%) of E-11 cells, mean = 131.6
